assay: Metabolic stability in human liver microsomes assessed as hepatic extraction ratio at 20 uM measured upto 90 mins in presence of NADP regenerating system by high-resolution mass spectrometry; assay type: ADME, Microsome; conditions: read-out: ERH

{"SMILES_DATA": "Cc1c(C(F)(F)F)cc([N+](=O)[O-])c2sc(N3CCC4(CC3)OC[C@H](C)O4)nc(=O)c12", "hepatic extraction ratio at 1.5 h, 20 µM": 0.443}
{"SMILES_DATA": "Cc1c(C(F)(F)F)cc2c(=O)nc(N3CCC(Oc4ccc(OC(F)(F)F)cc4)CC3)sc2c1[N+](=O)[O-]", "hepatic extraction ratio at 1.5 h, 20 µM": 0.543}
{"SMILES_DATA": "Cc1c(C(F)(F)F)cc2c(=O)nc(N3CCC4(CC3)OC[C@H](C)O4)sc2c1[N+](=O)[O-]", "hepatic extraction ratio at 1.5 h, 20 µM": 0.329}
{"SMILES_DATA": "Cc1c(C(F)(F)F)cc([N+](=O)[O-])c2sc(N3CCN(CC4CCCCC4)CC3)nc(=O)c12", "hepatic extraction ratio at 1.5 h, 20 µM": 0.661}
{"SMILES_DATA": "Cc1c(C(F)(F)F)cc([N+](=O)[O-])c2sc(N3CCC(Oc4ccc(OC(F)(F)F)cc4)CC3)nc(=O)c12", "hepatic extraction ratio at 1.5 h, 20 µM": 0.702}

====

test: Cytotoxicity against human HeLa cells assessed as cytolytic effect incubated for 72 hrs by methylene blue staining based colorimetric analysis; format: toxicity, cell-based
Quick reference for CC50 at 72 h among some molecules
EXPERIMENTAL_ENDPOINT: CC50 at 72 h

{"SMILES_DATA": "Cc1c(C(F)(F)F)cc([N+](=O)[O-])c2sc(N3CCN(CC4CCCCC4)CC3)nc(=O)c12", "EXPERIMENTAL_RESULT": "53 µM"}
{"SMILES_DATA": "C#Cc1c(C(F)(F)F)cc([N+](=O)[O-])c2sc(N3CCC4(CC3)OC[C@H](C)O4)nc(=O)c12", "EXPERIMENTAL_RESULT": "9 µM"}
{"SMILES_DATA": "Cc1c(C(F)(F)F)cc([N+](=O)[O-])c2sc(N3CCN(S(=O)(=O)c4ccc(OC(F)(F)F)cc4)CC3)nc(=O)c12", "EXPERIMENTAL_RESULT": "> 84 µM"}
{"SMILES_DATA": "O=c1nc(N2CCN(CC3CCCCC3)CC2)sc2c([N+](=O)[O-])cc(C(F)(F)F)cc12", "EXPERIMENTAL_RESULT": "> 110 µM"}
{"SMILES_DATA": "O=c1nc(N2CCN(S(=O)(=O)c3ccc(OC(F)(F)F)cc3)CC2)sc2c([N+](=O)[O-])cc(C(F)(F)F)cc12", "EXPERIMENTAL_RESULT": "43 µM"}
{"SMILES_DATA": "Cc1c(C(F)(F)F)cc([N+](=O)[O-])c2sc(N3CCC4(CC3)OC[C@H](C)O4)nc(=O)c12", "EXPERIMENTAL_RESULT": "> 110 µM"}
{"SMILES_DATA": "Cc1c(C(F)(F)F)c(C)c2c(=O)nc(N3CCC4(CC3)OC[C@H](C)O4)sc2c1[N+](=O)[O-]", "EXPERIMENTAL_RESULT": "93 µM"}
{"SMILES_DATA": "Cc1c(C(F)(F)F)cc2c(=O)nc(N3CCN(CC4CCCCC4)CC3)sc2c1[N+](=O)[O-]", "EXPERIMENTAL_RESULT": "64 µM"}

====

Quick reference for CLint scaled at 20 µM among some compounds
assay: Metabolic stability in human liver assessed as intrinsic clearance at 20 uM measured upto 90 mins in presence of NADP regenerating system by high-resolution mass spectrometry; type: ADME, tissue-based; conditions: read-out: CLH
EXPERIMENTAL_ENDPOINT: CLint scaled at 20 µM (mL/min/kg)

{"SMILES_DATA": "Cc1c(C(F)(F)F)cc([N+](=O)[O-])c2sc(N3CCC4(CC3)OC[C@H](C)O4)nc(=O)c12", "UOM": "mL/min/kg", "EXPERIMENTAL_RESULT": 15.9}
{"SMILES_DATA": "Cc1c(C(F)(F)F)cc2c(=O)nc(N3CCC(Oc4ccc(OC(F)(F)F)cc4)CC3)sc2c1[N+](=O)[O-]", "UOM": "mL/min/kg", "EXPERIMENTAL_RESULT": 23.8}
{"SMILES_DATA": "Cc1c(C(F)(F)F)cc([N+](=O)[O-])c2sc(N3CCC(Oc4ccc(OC(F)(F)F)cc4)CC3)nc(=O)c12", "UOM": "mL/min/kg", "EXPERIMENTAL_RESULT": 47.1}
{"SMILES_DATA": "Cc1c(C(F)(F)F)cc2c(=O)nc(N3CCC4(CC3)OC[C@H](C)O4)sc2c1[N+](=O)[O-]", "UOM": "mL/min/kg", "EXPERIMENTAL_RESULT": 9.8}
{"SMILES_DATA": "Cc1c(C(F)(F)F)cc([N+](=O)[O-])c2sc(N3CCN(CC4CCCCC4)CC3)nc(=O)c12", "UOM": "mL/min/kg", "EXPERIMENTAL_RESULT": 39}

====

assay: Metabolic stability in human liver microsomes assessed as intrinsic clearance at 20 uM measured upto 90 mins in presence of NADP regenerating system by high-resolution mass spectrometry; assay type: ADME, Microsome; settings: read-out: CLH
Threshold 10 µL/min/mg. microsomal CLint at 20 µM below it: y. microsomal CLint at 20 µM at it or above: n.

{"SMILES_DATA": "Cc1c(C(F)(F)F)cc2c(=O)nc(N3CCC(Oc4ccc(OC(F)(F)F)cc4)CC3)sc2c1[N+](=O)[O-]", "CAT": "n"}
{"SMILES_DATA": "Cc1c(C(F)(F)F)cc([N+](=O)[O-])c2sc(N3CCN(CC4CCCCC4)CC3)nc(=O)c12", "CAT": "n"}
{"SMILES_DATA": "Cc1c(C(F)(F)F)cc([N+](=O)[O-])c2sc(N3CCC(Oc4ccc(OC(F)(F)F)cc4)CC3)nc(=O)c12", "CAT": "n"}
{"SMILES_DATA": "Cc1c(C(F)(F)F)cc([N+](=O)[O-])c2sc(N3CCC4(CC3)OC[C@H](C)O4)nc(=O)c12", "CAT": "n"}
{"SMILES_DATA": "Cc1c(C(F)(F)F)cc2c(=O)nc(N3CCC4(CC3)OC[C@H](C)O4)sc2c1[N+](=O)[O-]", "CAT": "y"}

====

assay: Stability in mouse RAW264.7 cells assessed as parent compound remaining at 77 uM after 8 hrs by UHPLC-HRMS analysis; type: ADME, cell-based; conditions: read-out: Stability

{"SMILES_DATA": "Cc1c(C(F)(F)F)cc([N+](=O)[O-])c2sc(N3CCC4(CC3)OC[C@H](C)O4)nc(=O)c12", "UOM": "%", "remaining at 8 h, 77 µM": 76.6}

====

test: Metabolic stability in human liver microsomes assessed as half life at 20 uM measured upto 90 mins in presence of NADP regenerating system by high-resolution mass spectrometry; assay type: ADME, Microsome

{"SMILES_DATA": "Cc1c(C(F)(F)F)cc([N+](=O)[O-])c2sc(N3CCC(Oc4ccc(OC(F)(F)F)cc4)CC3)nc(=O)c12", "UOM": "h", "half-life at 20 µM": 0.572}
{"SMILES_DATA": "Cc1c(C(F)(F)F)cc2c(=O)nc(N3CCC4(CC3)OC[C@H](C)O4)sc2c1[N+](=O)[O-]", "UOM": "h", "half-life at 20 µM": 2.75}
{"SMILES_DATA": "Cc1c(C(F)(F)F)cc([N+](=O)[O-])c2sc(N3CCN(CC4CCCCC4)CC3)nc(=O)c12", "UOM": "h", "half-life at 20 µM": 0.692}
{"SMILES_DATA": "Cc1c(C(F)(F)F)cc2c(=O)nc(N3CCC(Oc4ccc(OC(F)(F)F)cc4)CC3)sc2c1[N+](=O)[O-]", "UOM": "h", "half-life at 20 µM": 1.13}
{"SMILES_DATA": "Cc1c(C(F)(F)F)cc([N+](=O)[O-])c2sc(N3CCC4(CC3)OC[C@H](C)O4)nc(=O)c12", "UOM": "h", "half-life at 20 µM": 1.7}

====

assay: Apparent oral clearance in BALB/cAnNCrl mouse at 250 mg/kg measured upto 24 hrs by UHPLC-HRMS analysis; type: ADME, organism-based; conditions: in vivo

{"SMILES_DATA": "Cc1c(C(F)(F)F)cc([N+](=O)[O-])c2sc(N3CCC4(CC3)OC[C@H](C)O4)nc(=O)c12", "UOM": "mL/min/kg", "CL/F": 267}
